# experimental_target: Interleukin-1 receptor-associated kinase 1 (Homo sapiens)
# Sequence (P51617 whole entry): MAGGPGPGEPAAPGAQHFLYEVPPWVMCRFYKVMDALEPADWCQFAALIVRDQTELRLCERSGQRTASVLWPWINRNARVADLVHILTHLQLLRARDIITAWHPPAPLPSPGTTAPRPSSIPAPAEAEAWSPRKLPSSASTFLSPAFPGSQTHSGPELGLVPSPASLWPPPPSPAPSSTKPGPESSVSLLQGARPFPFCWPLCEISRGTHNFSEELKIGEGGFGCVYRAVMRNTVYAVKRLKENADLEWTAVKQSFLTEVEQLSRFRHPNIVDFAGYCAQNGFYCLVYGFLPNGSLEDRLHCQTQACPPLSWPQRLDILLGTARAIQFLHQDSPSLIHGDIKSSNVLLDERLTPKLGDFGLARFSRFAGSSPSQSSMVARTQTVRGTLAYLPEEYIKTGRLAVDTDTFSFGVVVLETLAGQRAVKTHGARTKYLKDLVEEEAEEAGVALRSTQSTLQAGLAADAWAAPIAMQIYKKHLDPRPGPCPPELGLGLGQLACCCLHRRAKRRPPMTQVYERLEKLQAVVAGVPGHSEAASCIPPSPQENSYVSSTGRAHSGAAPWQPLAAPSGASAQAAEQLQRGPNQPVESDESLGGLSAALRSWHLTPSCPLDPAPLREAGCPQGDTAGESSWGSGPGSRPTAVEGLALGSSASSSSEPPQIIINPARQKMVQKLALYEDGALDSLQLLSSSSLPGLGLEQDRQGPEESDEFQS

smiles_repr	Kd (nM)
O=C1NC(Nc2ccccc2)=N/C1=C\c1ccc2c(c1)OCO2	930

----------
# experimental_target: Dual specificity protein kinase CLK4 (Mus musculus)
# Sequence (O35493 whole entry): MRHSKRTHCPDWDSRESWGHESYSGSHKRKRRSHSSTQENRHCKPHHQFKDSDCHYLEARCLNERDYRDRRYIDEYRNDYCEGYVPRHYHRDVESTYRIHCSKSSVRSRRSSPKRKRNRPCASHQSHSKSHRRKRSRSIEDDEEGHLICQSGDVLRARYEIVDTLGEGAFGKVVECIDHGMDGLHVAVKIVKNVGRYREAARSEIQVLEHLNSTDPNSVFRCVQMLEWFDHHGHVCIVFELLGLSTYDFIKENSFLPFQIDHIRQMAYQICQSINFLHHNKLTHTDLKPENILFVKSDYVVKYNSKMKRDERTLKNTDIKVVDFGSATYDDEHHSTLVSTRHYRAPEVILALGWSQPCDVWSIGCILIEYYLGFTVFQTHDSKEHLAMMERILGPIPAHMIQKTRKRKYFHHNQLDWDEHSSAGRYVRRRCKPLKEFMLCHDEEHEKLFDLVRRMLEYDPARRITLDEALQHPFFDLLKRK
# protocol: Inhibition of mouse recombinant GST-tagged CLK4 expressed in Escherichia coli using GRSRSRSRSRSR as substrate and [gamma33P]ATP after 30 mins by scintillation counting
measured_quantity: IC50 (nM)

compound	experimental_target	measured_quantity	units_text	value_reported
COc1ccc2c(c1)[nH]c1c(C)nccc12 [HARMINE]	Dual specificity protein kinase CLK4 (Mus musculus)	IC50	nM	50
CN1C(=O)/C(=C/c2ccc3c(c2)OCO3)N=C1N [LEUCETTAMINE B]	Dual specificity protein kinase CLK4 (Mus musculus)	IC50	nM	150
